- Tested on: Trypanosoma brucei rhodesiense STIB 900 strain
- procedure-summary: Trypanosoma brucei rhodesiense STIB 900 screening assay
- Format: cell-based
- measurement-parameters: 72 h, read-out: Swiss TPH T b rhodesiense IC50
Would you mind telling me the reported IC50 of each entry?

Field: example entries. Status: answers known.
Cc1c(C(=O)Nc2ccc3c(c2)B(O)OC3)nnn1-c1ccccc1 :: < 100 nM
O=C(Nc1ccc2c(c1)B(O)OC2)c1nnn(-c2ccccc2)c1C(F)(F)F :: < 100 nM

Now examine the next entry.
What does the data say about its IC50? Entry: COc1cccc(-n2cc(C(=O)Nc3ccc4c(c3)B(O)OC4)nn2)n1
< 100 nM
